B1: GLTSCR2 (parent)
chain: YNPSFEDHQTLLSAAHEVELQRQK

Variants of: B1
Measurement Protocol: protein stability index of a GFP-peptide fusion (GPS, HEK-293T) (PSI 1-6); higher = more stable;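 also: lentivirally expressed fusions sorted by FACS into six bins by GFP to DsRed ratio, PSI derived from sequencing read proportions per bin multiplied by bin number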
Condition Context: c terminus: a fixed tail appended
Value Type: protein stability index
Answer with a bare number; do not write a unit.

Example entries begin here.
N2Q	4.47
F5G	4.06
S4E	4.72

Input: Could you share which protein stability index value was measured for D7W ?
Output: 1.92

Input: Next entry: A15I
Output: 2.29

Input: And for L11Q ?
Output: 4.88
